# experimental protocol: qHTS for Inhibitors of human tyrosyl-DNA phosphodiesterase 1 (TDP1): qHTS in cells in presence of CPT; also: nearly all actives have a fitted effect of over 55% in size
# protocol conditions: chicken DT40 Tdp1-/-;hTDP1 cells + 20 nM CPT, ATP luminescence, 48 h; series mostly up to 46.2 µM
In all, about 420,000 compounds went through this assay and about 50,000 (12%) were called active. Roughly 26% stayed inconclusive and do not appear here. Calls follow the shape of the dose curve; as a rule, active = well fitted inhibition curve with a large enough effect; inconclusive = small, poorly fitted or top-dose-only effect; inactive = flat fitted curve, though single readings scatter. Only a selection was taken, and actives are over-represented in it overall.
Can you answer with just one of these options? active, inactive

I'd appreciate the recorded outcome for CCN(CC)S(=O)(=O)c1ccc(N(C)Cc2cccc(OC)c2OC)nc1 from this test.
active

Recorded test call requested for Cc1ccccc1NC(=S)Nc1cccc([N+](=O)[O-])c1
inactive

Lab log entry: CS(=O)(=O)c1cccc(-c2ccc3nncn3c2)c1 — outcome as called in the assay?
inactive

====

# experimental protocol: qHTS for Inhibitors of human tyrosyl-DNA phosphodiesterase 1 (TDP1): qHTS in cells in presence of CPT; also: nearly all actives have a fitted effect of over 55% in size
# protocol conditions: chicken DT40 Tdp1-/-;hTDP1 cells + 20 nM CPT, ATP luminescence, 48 h; series mostly up to 46.2 µM
About 50,000 (12%) of roughly 420,000 compounds were called active. Not shown: some 26% with an inconclusive outcome. Calls follow the shape of the dose curve; as a rule, active = well fitted inhibition curve with a large enough effect; inconclusive = small, poorly fitted or top-dose-only effect; inactive = flat fitted curve, though single readings scatter. What follows is part of a selection rich in actives, with near analogues and random picks from the rest.
The reply should name one outcome from active, inactive

# compound, label
rows = [
    ("O=C(NCC(=O)N1CCN(c2ccccc2F)CC1)c1cccs1", "inactive"),
]

Now consider a different compound.
What did this assay record as the result for Cc1ccc(S(=O)(=O)NCCSc2ccccc2)cc1[N+](=O)[O-] ?
inactive

====

# experimental protocol: qHTS for Inhibitors of human tyrosyl-DNA phosphodiesterase 1 (TDP1): qHTS in cells in presence of CPT; also: nearly all actives have a fitted effect of over 55% in size
# protocol conditions: chicken DT40 Tdp1-/-;hTDP1 cells + 20 nM CPT, ATP luminescence, 48 h; series mostly up to 46.2 µM
Out of some 420,000 compounds screened, about 50,000 (12%) were called active. Roughly 26% stayed inconclusive and do not appear here. The call rests on the fitted dose curve; in most records, active means well fitted inhibition curve with a large enough effect; inconclusive means small, poorly fitted or top-dose-only effect; inactive means flat fitted curve, though single readings scatter. The sample holds actives, similar compounds and a random draw of the others, so the mix is not that of the screen.
Hi! Could you answer with just one of these? active, inactive

Use these answered entries as a reference point.
# compound, label
measured = [
    ("COc1cccc(OCCn2c(-c3ccc(Br)cc3)nc3ccccc3c2=O)c1", "inactive"),
    ("COc1cc(CNCCSc2nnnn2C)ccc1OCc1ccc(Cl)cc1Cl", "active"),
]

# fetch the recorded call for COc1cc(-c2cc3n(C)c(C)c(CCC(=O)Nc4ccc(F)cc4)c(=O)n3n2)cc(OC)c1OC here
inactive

Just curious, what result did COc1ccc(NC(=O)CCCC2CCCCC2)c(OC)c1 get here?
inactive

# outcome recorded in this test, key = O=S(=O)(NCCc1ccncc1)c1ccccc1
inactive

Test call, this compound: C=CCN(c1ccc(Cl)cc1)S(=O)(=O)c1cccc(C(=O)OCC(=O)N(C)C)c1
inactive

Returns: the outcome recorded for CCCn1c(SCC(=O)c2ccc3c(c2)OCCO3)nnc1C(C)C in this assay.
active

Hey, what did the test say about Cn1c(=O)c2c(-c3ccccc3Br)n(Cc3ccccc3)cc2n(C)c1=O ?
active

====

# experimental protocol: qHTS for Inhibitors of human tyrosyl-DNA phosphodiesterase 1 (TDP1): qHTS in cells in presence of CPT; also: nearly all actives have a fitted effect of over 55% in size; also: potency is read from the fitted curve at half-maximal effect
# protocol conditions: chicken DT40 Tdp1-/-;hTDP1 cells + 20 nM CPT, ATP luminescence, 48 h; series mostly up to 46.2 µM
Among all 420,000 compounds or so, about 50,000 (12%) were called active. Inconclusive results (about 26%) are left out. Many of the other results were omitted from the sample, so actives are more common in it than they were.
readout label: Potency

Worked set:
# compound, readout label, measured
measured = [
    ("OCCNc1nc(Nc2ccc(Cl)c(Cl)c2)nc2ccccc12", "Potency", "18.4 µM (active)"),
    ("COc1ccc(N(CC(=O)N2CCCCCC2)S(=O)(=O)c2ccccc2)cc1", "Potency", "inactive"),
    ("CC(C)CCOc1ccc(C(=O)Nc2cc(S(=O)(=O)N3CCOCC3)ccc2N2CCOCC2)cc1", "Potency", "9.2 µM (active)"),
    ("CC(Oc1ccc(F)cc1)C(=O)Nc1cc(S(=O)(=O)N2CCOCC2)ccc1N1CCN(C)CC1 (stereo not given)", "Potency", "inactive"),
]

Quote Potency reported for CC(=O)Nc1ccc(C(=O)Nc2cc(S(=O)(=O)N3CCOCC3)ccc2N2CCOCC2)cc1 please.
inactive

Give reported Potency value for CC(=O)NCCC(=O)Nc1cc(S(=O)(=O)N2CCOCC2)ccc1N1CCOCC1
inactive

Please supply the value of reported Potency for the item COc1ccc(C(=NN)c2ccc(OC)cc2)cc1
inactive

Please indicate Potency recorded for COc1ccc(/C(N)=N/OC(=O)Cc2ccccc2)cc1
inactive

Find the measured Potency of COc1ccc(C(C#N)=C2C=CC(=NO)c3ccccc32)cc1 and report it.
1.3 µM (active)

Identify the reported Potency for the following entry. CCOc1ccc(CNCCSc2nnnn2C)cc1
inactive
